Entries and their measured pIC50 follow.
Molecular target: PLK3 (Homo sapiens, UniProt Q9H4B4)
Sequence (Q9H4B4 whole entry): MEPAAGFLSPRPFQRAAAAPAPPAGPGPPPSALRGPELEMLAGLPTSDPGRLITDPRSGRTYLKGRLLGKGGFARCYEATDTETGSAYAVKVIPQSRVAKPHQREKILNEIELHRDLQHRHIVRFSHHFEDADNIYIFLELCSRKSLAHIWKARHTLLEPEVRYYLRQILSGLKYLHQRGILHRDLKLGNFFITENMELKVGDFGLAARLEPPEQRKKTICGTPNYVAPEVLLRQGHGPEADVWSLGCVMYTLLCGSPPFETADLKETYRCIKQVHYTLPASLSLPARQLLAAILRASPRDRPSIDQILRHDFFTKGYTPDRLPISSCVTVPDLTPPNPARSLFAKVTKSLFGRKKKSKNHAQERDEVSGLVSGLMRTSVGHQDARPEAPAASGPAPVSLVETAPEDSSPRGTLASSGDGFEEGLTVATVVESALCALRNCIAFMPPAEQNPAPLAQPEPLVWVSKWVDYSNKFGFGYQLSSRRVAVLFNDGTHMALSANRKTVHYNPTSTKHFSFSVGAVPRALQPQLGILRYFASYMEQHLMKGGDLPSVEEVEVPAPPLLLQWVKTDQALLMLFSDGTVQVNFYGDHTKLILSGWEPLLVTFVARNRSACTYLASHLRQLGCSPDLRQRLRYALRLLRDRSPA
Experiment: PLK TR-FRET peptide assay, PLK3
Format: biochemical
Conditions: GST-PLK3, 15 min reaction, read-out: Plk3 IC50
pIC50: −log10 of the molar value.
reportedEndpoint: pIC50

>>> observedresult("CC[C@@H]1C(=O)N(C)c2cnc(-n3ccnc3-c3ccncc3)nc2N1CCC(F)(F)F")
"4.30 to 5.00"
>>> observedresult("CC[C@@H]1C(=O)N(C)c2cnc(-n3ccnc3-c3ccccc3)nc2N1C1COC1")
"4.30 to 5.00"
>>> observedresult("CCC12CCCCCN1c1nc(-n3ccnc3-c3ccccc3)ncc1N(C)C2=O (racemic)")
"4.30 to 5.00"
>>> observedresult("CC[C@@H]1C(=O)N(C)c2cnc(-n3ccnc3C)nc2N1C1CCCC1")
"< 4.30"
>>> observedresult("CC[C@@H]1C(=O)N(C)c2cnc(-c3cncnc3-c3ccc(C(F)(F)F)cc3)nc2N1C(C)C")
"< 4.30"
>>> observedresult("CC[C@@H]1C(=O)N(C)c2cnc(-n3cccn3)nc2N1C1CCCC1")
"4.30 to 5.00"
>>> observedresult("CC[C@@H]1C(=O)N(C)c2cnc(-n3ccnc3-c3cncnc3)nc2N1C1CC1")
"4.30 to 5.00"
>>> observedresult("CC[C@@H]1C(=O)N(C)c2cnc(-n3ccnc3-c3cc(Cl)cc(Cl)c3)nc2N1C(C)C")
"5.00 to 6.00"

---

Target: PLK1 (Homo sapiens)
Sequence (P53350 whole entry): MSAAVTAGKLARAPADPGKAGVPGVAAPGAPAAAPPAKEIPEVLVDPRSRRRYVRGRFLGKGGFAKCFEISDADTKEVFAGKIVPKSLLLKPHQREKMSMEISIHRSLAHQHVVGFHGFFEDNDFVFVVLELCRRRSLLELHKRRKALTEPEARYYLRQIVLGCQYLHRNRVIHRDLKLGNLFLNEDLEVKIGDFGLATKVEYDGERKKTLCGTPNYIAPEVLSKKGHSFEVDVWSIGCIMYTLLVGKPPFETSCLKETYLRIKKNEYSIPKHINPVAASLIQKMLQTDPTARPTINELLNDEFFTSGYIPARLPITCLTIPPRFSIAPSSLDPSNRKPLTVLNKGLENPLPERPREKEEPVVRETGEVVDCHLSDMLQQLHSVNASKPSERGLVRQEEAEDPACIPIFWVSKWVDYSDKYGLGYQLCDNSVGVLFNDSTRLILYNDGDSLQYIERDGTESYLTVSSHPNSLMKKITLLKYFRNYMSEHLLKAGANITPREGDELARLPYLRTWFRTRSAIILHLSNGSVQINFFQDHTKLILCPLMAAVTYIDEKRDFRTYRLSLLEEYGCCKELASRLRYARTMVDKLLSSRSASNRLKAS
Experiment: PLK TR-FRET peptide assay, PLK1
Format: biochemical
Conditions: GST-PLK1, 60 min reaction
pIC50: −log10 of the molar value.
reportedEndpoint: pIC50

>>> observedresult("CC[C@@H]1C(=O)N(C)c2cnc(-n3ccnc3-c3ccc(F)cn3)nc2N1C1CCC1 [Example 224]")
"5.00 to 6.00"
>>> observedresult("CC[C@@H]1C(=O)N(C)c2cnc(-n3ccnc3-c3nccs3)nc2N1C(C)C [Example 151]")
"5.00 to 6.00"
>>> observedresult("CC[C@@H]1C(=O)N(C)c2cnc(-n3ccnc3-c3cscn3)nc2N1C1CCCC1 [Example 68]")
"> 6.00"
>>> observedresult("CC[C@@]12CCCCN1c1nc(-n3ccnc3-c3cc(F)c(F)c(F)c3)ncc1N(C)C2=O [Example 266]")
"< 4.30"
>>> observedresult("CC[C@@H]1C(=O)N(C)c2cnc(-n3ccnc3-c3ccc(F)c(F)c3)nc2N1C1CCC(F)(F)C1 (some centres unmarked) [Example 237]")
"> 6.00"

---

Molecular target: PLK2 (Homo sapiens, UniProt Q9NYY3)
Sequence (Q9NYY3 whole entry): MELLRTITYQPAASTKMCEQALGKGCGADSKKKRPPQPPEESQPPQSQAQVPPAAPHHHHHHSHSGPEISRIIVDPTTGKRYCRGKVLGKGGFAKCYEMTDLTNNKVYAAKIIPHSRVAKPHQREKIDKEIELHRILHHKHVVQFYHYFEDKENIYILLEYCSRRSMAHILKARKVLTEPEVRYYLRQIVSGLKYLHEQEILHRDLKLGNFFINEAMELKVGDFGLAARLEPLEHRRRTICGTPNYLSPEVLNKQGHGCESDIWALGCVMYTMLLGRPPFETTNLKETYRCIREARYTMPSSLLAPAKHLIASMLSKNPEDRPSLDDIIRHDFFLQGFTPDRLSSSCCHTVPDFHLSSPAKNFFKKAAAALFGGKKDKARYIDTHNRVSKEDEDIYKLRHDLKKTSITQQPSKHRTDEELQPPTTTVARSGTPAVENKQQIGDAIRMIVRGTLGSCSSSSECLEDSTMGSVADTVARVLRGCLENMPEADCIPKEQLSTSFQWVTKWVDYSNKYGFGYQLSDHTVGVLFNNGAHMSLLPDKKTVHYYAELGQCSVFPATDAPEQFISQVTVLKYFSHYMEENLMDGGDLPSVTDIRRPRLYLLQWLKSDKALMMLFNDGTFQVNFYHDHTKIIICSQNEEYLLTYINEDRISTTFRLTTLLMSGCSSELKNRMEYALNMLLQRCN
Assay: PLK TR-FRET peptide assay, PLK2
Type: biochemical
Settings: PLK TR-FRET peptide assay, GST-PLK2, 60 min reaction; read-out: Plk2 IC50
reportedEndpoint: IC50

>>> observedresult("CC[C@@H]1C(=O)N(C)c2cnc(-c3ccncc3NC(=O)OC(C)(C)C)nc2N1C(C)C")
"1000 to 10000 nM"
>>> observedresult("CC[C@@H]1C(=O)N(C)c2cnc(-c3scnc3-c3ccn[nH]3)nc2N1C(C)C")
"< 1000 nM"
>>> observedresult("CC[C@@H]1C(=O)N(C)c2cnc(-n3ccnc3C3CCOCC3)nc2N1C1CCCC1")
"1000 to 10000 nM"
>>> observedresult("CC[C@]12CCCCN1c1nc(-n3ccnc3-c3cc(F)cc(F)c3)ncc1N(C)C2=O")
"> 50000 nM"
>>> observedresult("CC[C@@]12CCCN1c1nc(-n3nccc3-c3ccccc3)ncc1N(C)C2=O")
"1000 to 10000 nM"
>>> observedresult("CCC12CCCCN1c1nc(-n3ccnc3-c3ccc(F)c(F)c3)ncc1N(C)C2=O (racemic)")
"< 1000 nM"
>>> observedresult("CC[C@@H]1C(=O)N(C)c2cnc(-c3ccncc3-c3ccccc3)nc2N1C1CCCC1")
"< 1000 nM"
>>> observedresult("CC[C@@H]1C(=O)N(C)c2cnc(-n3ccnc3-c3ccc(F)c(F)c3)nc2N1C1COC1")
"1000 to 10000 nM"
>>> observedresult("CC[C@@H]1C(=O)N(C)c2cnc(-c3nccnc3-c3ccc(C(F)(F)F)cc3)nc2N1C(C)C")
"1000 to 10000 nM"
>>> observedresult("CC[C@@H]1C(=O)N(C)c2cnc(-n3ccnc3-c3cncc(F)c3)nc2N1C1CCCC1")
"< 1000 nM"
>>> observedresult("CC[C@@H]1C(=O)N(C)c2cnc(-c3ccncc3CNC(=O)OC)nc2N1C(C)C")
"1000 to 10000 nM"
>>> observedresult("CC[C@@H]1C(=O)N(C)c2cnc(-c3ccncc3CNS(C)(=O)=O)nc2N1C(C)C")
"10000 to 50000 nM"
>>> observedresult("CC[C@@H]1C(=O)N(C)c2cnc(-c3cnc4[nH]ccc4c3)nc2N1C1CCCC1")
"< 1000 nM"
>>> observedresult("CC[C@@H]1C(=O)N(C)c2cnc(-c3ccncc3NS(=O)(=O)c3ccccc3)nc2N1C(C)C")
"1000 to 10000 nM"
>>> observedresult("CCC1C(=O)N(C)c2cnc(-n3ccnc3-c3ccc(F)cc3)nc2N1c1cccc(-c2cncnc2)c1 (stereo not shown)")
"< 1000 nM"
>>> observedresult("CC[C@@H]1C(=O)N(C)c2cnc(-n3ccnc3-c3ccccc3)nc2N1C1CCC1")
"< 1000 nM"
>>> observedresult("CC[C@@]12CCCN1c1nc(-c3cncnc3-c3ccccc3)ncc1N(C)C2=O")
"1000 to 10000 nM"
>>> observedresult("CC[C@@H]1C(=O)N(C)c2cnc(-c3ccncc3)nc2N1C(C)C")
"< 1000 nM"
>>> observedresult("CC[C@@H]1C(=O)N(C)c2cnc(-c3ccncc3NC(=O)OC)nc2N1C(C)C")
"1000 to 10000 nM"
>>> observedresult("CC[C@@H]1C(=O)N(C)c2cnc(-n3ccnc3-c3ccc(F)cn3)nc2N1C1CCCC1")
"< 1000 nM"
>>> observedresult("[2H]C([2H])([2H])N1C(=O)[C@@H](C([2H])([2H])C([2H])([2H])[2H])N(C([2H])(C([2H])([2H])[2H])C([2H])([2H])[2H])c2nc(-n3ccnc3-c3ccc(F)cc3)ncc21")
"< 1000 nM"
>>> observedresult("CC[C@@H]1C(=O)N(C)c2cnc(-c3ccncc3NC(=O)OC(C)(C)C)nc2N1C1CCCC1")
"1000 to 10000 nM"
>>> observedresult("CC[C@@]12CCCCN1c1nc(-n3ccnc3-c3ccccc3)ncc1N(C)C2=O")
"< 1000 nM"
>>> observedresult("CC[C@@H]1C(=O)N(C)c2cnc(-n3ccnc3Cc3ccccc3)nc2N1C1CCCC1")
"< 1000 nM"
>>> observedresult("CC[C@@H]1C(=O)N(C)c2cnc(-c3cn[nH]c3-c3ccc(F)cc3F)nc2N1C(C)C")
"< 1000 nM"
>>> observedresult("CC[C@@H]1CC[C@@]2(CC)C(=O)N(C)c3cnc(-c4cn[nH]c4-c4nccs4)nc3N12")
"< 1000 nM"
>>> observedresult("CC[C@@]12CCCN1c1nc(-c3cn[nH]c3-c3ccccc3)ncc1N(C)C2=O")
"< 1000 nM"
>>> observedresult("CC[C@@]12CCCN1c1nc(-n3ccnc3-c3cc(Cl)cc(Cl)c3)ncc1N(C)C2=O")
"< 1000 nM"

---

Target: PLK3 (Homo sapiens)
Assay: PLK TR-FRET peptide assay, PLK3
Format: biochemical
Conditions: GST-PLK3, 15 min reaction, read-out: Plk3 IC50
reportedEndpoint: IC50

>>> observedresult("CC[C@@H]1C(=O)N(C)c2cnc(-c3ccncc3CN)nc2N1C1CCCC1 [Example 105]")
"> 50 µM"
>>> observedresult("CC[C@@H]1C(=O)N(C)c2cnc(N3CCNC(=O)C3)nc2N1C1CCCC1 [Example 214]")
"> 50 µM"
>>> observedresult("CC[C@@H]1C(=O)N(C)c2cnc(-n3ccnc3C(F)(F)F)nc2N1C1CCCC1 [Example 352]")
"1 to 10 µM"
>>> observedresult("CN1C(=O)C2(CC(F)(F)F)CCCN2c2nc(-n3ccnc3-c3ccccc3)ncc21 (centres unmarked) [Example 339]")
"10 to 50 µM"
>>> observedresult("CC[C@@H]1C(=O)N(C)c2cnc(-c3cccc(OCc4ccccc4)c3)nc2N1C1CCCC1 [Example 72]")
"> 50 µM"
>>> observedresult("CC[C@@]12CCCN1c1nc(-n3nccc3-c3ccccc3)ncc1N(C)C2=O [Example 193]")
"1 to 10 µM"
>>> observedresult("CC[C@@H]1C(=O)N(C)c2cnc(-c3ccncc3CNC(C)=O)nc2N1C1CCCC1 [Example 122]")
"10 to 50 µM"
>>> observedresult("CC[C@@H]1C(=O)N(C)c2cnc(-c3ccncc3CNS(C)(=O)=O)nc2N1C(C)C [Example 131]")
"> 50 µM"
>>> observedresult("CC[C@@H]1C(=O)N(C)c2cnc(-c3ccncc3NC(=O)c3ccccc3)nc2N1C1CCCC1 [Example 102]")
"1 to 10 µM"
>>> observedresult("CC[C@@H]1C(=O)Nc2cnc(-n3cccn3)nc2N1C1CCCC1 [Example 29]")
"> 50 µM"
>>> observedresult("CCC12CCCCN1c1nc(-n3ccnc3-c3cc(F)cc(F)c3)ncc1N(C)C2=O (racemic) [Example 243]")
"> 50 µM"
>>> observedresult("CN1C(=O)[C@@H](CC(F)(F)F)N(CCC(F)(F)F)c2nc(-n3ccnc3-c3ccc(F)cc3F)ncc21 [Example 293]")
"10 to 50 µM"
>>> observedresult("CC[C@@H]1C(=O)N(C)c2cnc(-n3ccnc3-c3ccc(F)cc3)nc2N1C1CCC1 [Example 50]")
"1 to 10 µM"
>>> observedresult("CC[C@@H]1CC[C@@]2(CC)C(=O)N(C)c3cnc(-n4ccnc4C)nc3N12 [Example 325]")
"10 to 50 µM"
>>> observedresult("CC[C@@H]1C(=O)N(C)c2cnc(-c3ccncc3CNC(=O)c3ccccc3)nc2N1C(C)C [Example 130]")
"> 50 µM"
>>> observedresult("[2H]C([2H])([2H])N1C(=O)C(C([2H])([2H])C([2H])([2H])[2H])N(C([2H])(C([2H])([2H])[2H])C([2H])([2H])[2H])c2nc(-n3ccnc3-c3cccc(OC(F)(F)F)c3)ncc21 (centres unmarked) [Example 160]")
"10 to 50 µM"
>>> observedresult("[2H]C([2H])([2H])N1C(=O)[C@H](C([2H])([2H])C([2H])([2H])[2H])N(C([2H])(C([2H])([2H])[2H])C([2H])([2H])[2H])c2nc(-n3ccnc3-c3cc(F)cc(F)c3)ncc21 [Example 178]")
"> 50 µM"
>>> observedresult("[2H]C([2H])([2H])N1C(=O)[C@H](C([2H])([2H])C([2H])([2H])[2H])N(C([2H])(C([2H])([2H])[2H])C([2H])([2H])[2H])c2nc(-n3ccnc3-c3cccc(F)c3)ncc21 [Example 201]")
"> 50 µM"
>>> observedresult("CN1C(=O)[C@H](CC(F)(F)F)N(CCC(F)(F)F)c2nc(-n3ccnc3)ncc21 [Example 302]")
"> 50 µM"
>>> observedresult("CC[C@@H]1C(=O)N(C)c2cnc(-n3ccnc3-c3nccs3)nc2N1C1CCC1 [Example 156]")
"1 to 10 µM"
>>> observedresult("CC[C@@H]1C(=O)N(C)c2cnc(-n3ccnc3C3CCOCC3)nc2N1C1CCCC1 [Example 90]")
"10 to 50 µM"
>>> observedresult("CC[C@@H]1C(=O)N(C)c2cnc(-c3cnoc3-c3nccs3)nc2N1C(C)C [Example 187]")
"10 to 50 µM"
>>> observedresult("CC[C@@H]1C(=O)N(C)c2cnc(-n3ccnc3-c3cc(F)cc(C(F)(F)F)c3)nc2N1C1CCC1 [Example 174]")
"10 to 50 µM"
